Exercise: for every item that follows, state its recorded % Remaining of Initial (n = 1), 30 min.
measurement description: in vitro
settings: male, Sprague-Dawley, rat, s9, 0.5 h, 1 μM

Memo: CCCCCCCCCCCCCCCC(=O)NCCOC(=O)CCC(=O)OCC(O)CO (stereo not drawn) , reported % Remaining of Initial (n = 1), 30 min: <1.0%

Memo: CCCCCCCCCCCCCCCC(=O)NCCOC(=O)CCC(=O)OCC(COC(=O)CCC)OC(=O)CCC (stereo not drawn) , reported % Remaining of Initial (n = 1), 30 min: <1.0%

Memo: CCCCCCCCCCCCCCCC(=O)NCCOC(=O)CCC , reported % Remaining of Initial (n = 1), 30 min: <1.0%

---

measurement description: in vitro
settings: male, Sprague-Dawley, rat, 20 min, 1 μM
measured attribute: Concentration (μM) of analyte PEA, 20 min (µM)
Write the answer as a number in µM, unit excluded.

Memo: CCCCC/C=C\C/C=C\CCCCCCCC(=O)OCCNC(=O)CCCCCCCCCCCCCCC , reported Concentration (μM) of analyte PEA, 20 min: 0.094

Memo: CC/C=C\C/C=C\C/C=C\C/C=C\C/C=C\CCCC(=O)OCCNC(=O)CCCCCCCCCCCCCCC , reported Concentration (μM) of analyte PEA, 20 min: 0.099

Memo: CCCCCCCCCCCCCCCC(=O)NCCOC(=O)CCC(=O)OCC(COC(=O)CCC)OC(=O)CCC (stereo not drawn) , reported Concentration (μM) of analyte PEA, 20 min: 0.24

Memo: CCCCCCCCCCCCCCCC(=O)NCCOC(=O)CCC(=O)OC[C@H]1O[C@@](CO)(O[C@H]2O[C@H](CO)[C@@H](O)[C@H](O)[C@H]2O)[C@@H](O)[C@@H]1O , reported Concentration (μM) of analyte PEA, 20 min: 0.35

Memo: CCCCCCCCCCCCCCCC(=O)NCCOC(=O)CCC(=O)OCC(COC(=O)CCCCCCC)OC(=O)CCCCCCC (stereo not drawn) [Compound I-3, PEA-Succinate-Glycerol-Di-Caprylic] , reported Concentration (μM) of analyte PEA, 20 min: 0.037

Memo: CCCCCCCCCCCCCCCC(=O)NCCOC(=O)CCC , reported Concentration (μM) of analyte PEA, 20 min: 0.60

---

measurement description: in vitro
settings: male, Beagle, dog, microsomes, Half-life
Exercise: for every item that follows, state its recorded half-life at 1 μM.

Memo: CCCCCCCCCCCCCCCC(=O)NCCOC(=O)CCC(=O)OC(CO)CO , reported half-life at 1 μM: < 1 min

Memo: CC/C=C\C/C=C\C/C=C\C/C=C\C/C=C\CCCC(=O)OCCNC(=O)CCCCCCCCCCCCCCC , reported half-life at 1 μM: > 60 min

Memo: CCCCC/C=C\C/C=C\CCCCCCCC(=O)OCCNC(=O)CCCCCCCCCCCCCCC , reported half-life at 1 μM: > 60 min

Memo: CCCCCCCCCCCCCCCC(=O)NCCOC(=O)CCC(=O)OC(COC(=O)CCC)COC(=O)CCC , reported half-life at 1 μM: < 10 min

Memo: CCCCCCCCCCCCCCCC(=O)NCCOC(=O)CCC(=O)OCC(O)CO (stereo not drawn) , reported half-life at 1 μM: < 1 min

Memo: CCCCCCCCCCCCCCCC(=O)NCCOC(=O)CCC(=O)OCC(COC(=O)CCCCCCC)OC(=O)CCCCCCC (stereo not drawn) [Compound I-3, PEA-Succinate-Glycerol-Di-Caprylic] , reported half-life at 1 μM: > 60 min
